measurement.target: NHERF4_1, Q86UT5-2
Sequence (Q86UT5 other isoform, or with tags, fused parts or gaps): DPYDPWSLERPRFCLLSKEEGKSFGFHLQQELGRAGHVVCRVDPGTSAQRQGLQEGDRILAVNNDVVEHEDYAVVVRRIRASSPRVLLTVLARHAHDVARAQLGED
protocol.text: holdup assay
Parameters: key: below the threshold = too weak to quantify, mostly under pKd 3.1 to 4
experimental.setup: plain residues with an end cap or a label only (N-terminal biotin on a linker: ahx)
endpoint: pKd

binder	pKd
QPRTWLQSPV [RTKN, Q9BST9]	below the threshold
TQKFRASTAL [FRMPD1, Q5SYB0]	4.47
TEAKLTETNA [MYO18A, Q92614]	below the threshold
APSRKLNTEI [TIAM1, Q13009]	below the threshold

// next item, pKd requested
May I ask what pKd has been recorded for HTHSYIETHV [CNKSR2, Q8WXI2] ?
below the threshold
